- Tested on: HCC-2998 colon
- Experiment notes: NCI tumour cell line growth inhibition, 48 h

- Compound: "C[C@]12CC[C@H](O)CC1=CC[C@@H]1[C@@H]2CC[C@]2(C)C(c3cccnc3)=CC[C@@H]12"
  GI50: "> 100 µM"
- Compound: "COc1ccc2[nH]c(O)c(/C=c3/cc4c(c(-c5cc(OC)c(OC)c(OC)c5)n3)=Nc3ccccc3-4)c2c1"
  GI50: "34 µM"
- Compound: "CCCCC/C(C=C(C#N)C#N)=C/c1ccccc1"
  GI50: "4.69 µM"
- Compound: "CCCCC(=O)OCC1OC(n2cnc3c(=S)nc[nH]c32)C(OC(=O)CCCC)C1OC(=O)CCCC (stereo not given)"
  GI50: "0.565 µM"
- Compound: "CC(C)CC(=O)[O-].CC(C)CC(=O)[O-].N.N.N.N.[Co+3].[O-][Cl+3]([O-])([O-])[O-]"
  GI50: "> 100 µM"

====

Listed next: entries and their corresponding TGI.
- System: HL-60(TB) leukemia
- Experiment notes: NCI tumour cell line growth inhibition, 48 h
*1 amine or outer side, *2 acyl side, *3 side chain or, on linkers, in order; H or OH if unused. Where a SMILES comes first, the peptide text is derived from it. Bridges are numbered along the chain shown (N, C = ends). [ ]: non-standard residue; d: D form. The star is where a group is joined. ξ: configuration not given here. X34 = O=C(C(CCCCNO[*:3])N[*:1])[*:2]; Fmoc = O=C(OCC1c2ccccc2-c2ccccc21)*; ξW = NC(Cc1c[nH]c2ccccc12)C(=O)O; ξP = O=C(O)C1CCCN1
Reported property: TGI

- Compound: "CC(C)CC(=O)[O-].CC(C)CC(=O)[O-].N.N.N.N.[Co+3].[O-][Cl+3]([O-])([O-])[O-]"
  Result: "> 100 µM"
- Compound: "COc1ccc(-n2c(=O)c3[nH]cnc3n(-c3ccc(OC)cc3)c2=S)cc1"
  Result: "> 100 µM"
- Compound: "C[N+]1=C2[B-](C(C)(C)C)=[N+](C(C)(C)C)[B-]2(C(C)(C)C)[N+](C)=C2[B-](C(C)(C)C)=[N+](C(C)(C)C)[B-]21C(C)(C)C (stereo not given)"
  Result: "> 100 µM"
- Compound: "O=C1C=CC(=Nc2ccc3c(c2)C(Br)c2ccccc2-3)O1 (stereo not given)"
  Result: "> 100 µM"
- Compound: "COCOC1/C=C/CCCCC2=C(C)C=C(C1)O2 (stereo not given)"
  Result: "> 100 µM"
- Compound: "O=[N+]([O-])/C=C\\c1ccc(Cl)c(Cl)c1"
  Result: "10.5 µM"
- Compound: "Clc1ccc(C2N3CCCCC3[C@@H]3c4[nH]c5ccccc5c4CCN23)cc1 (stereo not given in full)"
  Result: "55 µM"
- Compound: "CC1(Cl)C(=O)NC(=O)N(C2CC(N=[N+]=[N-])C(CO)O2)C1N=[N+]=[N-] (stereo not given)"
  Result: "> 100 µM"
- Compound: "CC1=C(O)C(=O)[C@@H]2O[C@@H]2C1=O"
  Result: "8.59 µM"
- Compound: "Cc1c(-c2nc3ccccc3[nH]2)c(=O)n(-c2ccccc2)n1C"
  Result: "> 100 µM"
- Compound: "CCCCCCCCCCCCCCCCCCNc1ccn(C2OC(COP(=O)(O)OCC3OC(n4ccc(NC(=O)CCCCCCCCCCCCCCCCC)nc4=O)C(OC(C)=O)C3OC(C)=O)C(OC(C)=O)C2OC(C)=O)c(=O)n1 (stereo not given)"
  Result: "> 100 µM"
- Compound: "Cc1nc2cccc([N+](=O)[O-])c2c(NCCCN(C)C)c1C"
  Result: "17.8 µM"
- Compound: "COc1ccc2[nH]c3c(C)c4c(c(C)c3c2c1)CN(C)CC4"
  Result: "4.65 µM"
- Compound: "Nc1nc2cc3nc(N)c(N)nc3cc2nc1N"
  Result: "> 100 µM"
- Compound: "N#CC1(Cc2ccc(N)cc2)c2ccccc2C=CN1C(=O)c1ccccc1 (stereo not given)"
  Result: "44 µM"
- Compound: "CCCCN(CCCC)C(=O)C(=O)C(C#N)c1ccc(C)cc1 (stereo not given)"
  Result: "> 100 µM"
- Compound: "Cc1ccc(S(=O)(=O)C(CC(=O)N2CCCC2)C(=O)c2ccccc2)cc1 (stereo not given)"
  Result: "52.7 µM"
- Compound: "CCN(CC)c1c(C(=O)/C=C/c2ccccc2)c(-c2ccccc2)nn(C)c1=O"
  Result: "> 100 µM"
- Compound: "COCCOCOc1ccc(OCc2ccccc2)cc1"
  Result: "> 100 µM"
- Compound: "CC(C)=CCOC(=O)C(C)=[N+]=[N-]"
  Result: "> 100 µM"
- Compound: "N#C/C(=C/c1ccsc1)C(=O)c1ccccc1"
  Result: "> 100 µM"
- Compound: "O=C1c2cccc(NCCN=Cc3cc(O)ccc3O)c2C(=O)c2c(NCCN=Cc3cc(O)ccc3O)cccc21"
  Result: "4.19 µM"
- Compound: "c1ccc(C2C3=C(Nc4ncnn42)c2ccccc2C3)cc1 (stereo not given)"
  Result: "> 100 µM"
- Compound: "NC(=O)CNC(=O)C1CCCN1C(=O)C1CCCCNOC(=O)CC[C@@H](NC(=O)OCC2c3ccccc3-c3ccccc32)C(=O)NC(Cc2c[nH]c3ccccc23)C(=O)N1 (stereo not given in full) (Fmoc-[dE][ξW][X34][ξP]G-NH2; ester 1-3)"
  Result: "> 100 µM"
- Compound: "COc1cnc2cc(C(=O)O)c3c([N+](=O)[O-])cccc3c2c1"
  Result: "> 100 µM"
- Compound: "CC1=C(CCCNS(C)(=O)=O)C2=C(C)C3(CC3)[C@@](C)(O)C(=O)C2=C1"
  Result: "> 24 µM"
- Compound: "CSc1ccc(C2=NN(C(C)=O)C(c3cc(C)cs3)C2)cc1 (stereo not given)"
  Result: "29.8 µM"
- Compound: "OCCC1(O)CCC(O)CC1 (stereo not given)"
  Result: "> 100 µM"
- Compound: "CC1CCC2(C(=O)O)CCC3(C)C(=CCC4C5(C)CC(O)C(O)C(C)(CO)C5C(O)CC43C)C2C1C (stereo not given)"
  Result: "47.1 µM"
- Compound: "Cc1ccc2c(c1)C(=O)/C(=C/c1ncc([N+](=O)[O-])n1C)O2"
  Result: "9.71 µM"
- Compound: "COC(=O)C1C(C(=O)OC)N(Cc2ccccc2)C(=O)N1Cc1ccccc1 (stereo not given)"
  Result: "> 100 µM"
- Compound: "Oc1ccc(/C=C/c2cc(O)cc(O)c2)cc1"
  Result: "> 100 µM"
- Compound: "CCCCN1C(=O)CC2[C@@H]3CCc4cc(OC(C)=O)ccc4C3CC[C@]2(C)C1=O (stereo not given in full)"
  Result: "> 10 µM"
- Compound: "C=C(CN1CCc2ccccc2C1)c1ccc(C(=O)Nc2cnccn2)cc1"
  Result: "14 µM"
- Compound: "COc1ccccc1Nc1nc(N)nc(N)c1N=O"
  Result: "> 100 µM"
- Compound: "O=C1/C(=C/c2ccc(Br)cc2)C=C(c2ccccc2)N1CCc1ccccc1"
  Result: "> 100 µM"
- Compound: "COc1ccc(N2C(=O)C3c4[nH]c5ccc(OCc6ccccc6)cc5c4C4CCC(C(C)(C)C)CC4C3C2=O)cc1 (stereo not given)"
  Result: "> 100 µM"
- Compound: "Cc1ccc(CS/C(=C\\c2ccc([N+](=O)[O-])cc2)C(=O)c2ccc(F)cc2)cc1"
  Result: "17.3 µM"
- Compound: "CCCCCCCCCCCC(=O)CC(=O)c1c(O)cccc1O"
  Result: "> 100 µM"
- Compound: "CN(C)CCCOC(=O)C(c1ccccc1)C1(O)CCSCC1 (stereo not given)"
  Result: "> 100 µM"

====

- System: 786-0 renal
- Experiment notes: NCI tumour cell line growth inhibition, 48 h

- Molecule: "CSc1nc(Cl)c2c(n1)Sc1nc3cc4c(cc3n1C2O)OCCO4 (stereo not drawn)"
  Target entity: "786-0 renal"
  TGI: "14.9 µM"
- Molecule: "C[N+]1=C2[B-](C(C)(C)C)=[N+](C(C)(C)C)[B-]2(C(C)(C)C)[N+](C)=C2[B-](C(C)(C)C)=[N+](C(C)(C)C)[B-]21C(C)(C)C (stereo not drawn)"
  Target entity: "786-0 renal"
  TGI: "> 100 µM"
- Molecule: "COc1ccc(-c2cc(-c3ccco3)c(C#N)c(=S)n2C2OC(COC(C)=O)C(OC(C)=O)C(OC(C)=O)C2OC(C)=O)cc1 (stereo not drawn)"
  Target entity: "786-0 renal"
  TGI: "10.6 µM"
- Molecule: "CCCCN1C(=O)CC2[C@@H]3CCc4cc(OC(C)=O)ccc4C3CC[C@]2(C)C1=O (stereo partly drawn)"
  Target entity: "786-0 renal"
  TGI: "> 10 µM"
- Molecule: "O=C(/C=C/c1ccc(O)c([N+](=O)[O-])c1)CC(=O)/C=C/c1ccc(O)c([N+](=O)[O-])c1"
  Target entity: "786-0 renal"
  TGI: "> 100 µM"
- Molecule: "Cc1c(F)c(N)c2c(=O)cc(-c3ccc(NC(=O)CN(C)C)c(F)c3)oc2c1F"
  Target entity: "786-0 renal"
  TGI: "> 100 µM"
- Molecule: "N#CC(C(=N/O)/C(=N/O)C(C#N)c1ccc(Cl)cc1)c1ccc(Cl)cc1 (stereo not drawn)"
  Target entity: "786-0 renal"
  TGI: "> 100 µM"
- Molecule: "CC(C)c1ccc2[nH]c(O)c(-c3[nH]c4ccccc4c3N=O)c2c1"
  Target entity: "786-0 renal"
  TGI: "16.8 µM"
